System Tested: α-glucosidase (Saccharomyces cerevisiae, UniProt P53341)
Sequence (P53341 whole entry): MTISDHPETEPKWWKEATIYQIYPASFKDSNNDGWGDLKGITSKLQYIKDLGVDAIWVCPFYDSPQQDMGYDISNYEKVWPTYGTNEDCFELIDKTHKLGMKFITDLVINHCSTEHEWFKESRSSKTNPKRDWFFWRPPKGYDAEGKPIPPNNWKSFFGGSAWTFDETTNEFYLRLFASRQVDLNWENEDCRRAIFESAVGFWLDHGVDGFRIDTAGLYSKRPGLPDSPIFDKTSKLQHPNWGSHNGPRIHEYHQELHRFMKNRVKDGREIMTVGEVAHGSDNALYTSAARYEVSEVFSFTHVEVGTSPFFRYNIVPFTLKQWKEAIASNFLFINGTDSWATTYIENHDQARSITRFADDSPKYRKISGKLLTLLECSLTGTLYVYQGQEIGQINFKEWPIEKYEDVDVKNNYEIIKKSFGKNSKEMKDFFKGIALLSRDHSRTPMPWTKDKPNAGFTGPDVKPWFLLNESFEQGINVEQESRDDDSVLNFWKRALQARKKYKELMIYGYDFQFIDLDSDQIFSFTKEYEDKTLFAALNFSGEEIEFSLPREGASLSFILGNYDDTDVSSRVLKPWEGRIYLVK
Assay Name: α-Glucosidase inhibitory activity
Assay type: biochemical
pIC50: −log10 of the molar value.
Measured Attribute: pIC50

Compound | pIC50
O=S(=O)(NNc1nc2ccccc2nc1NNS(=O)(=O)c1ccc(Br)cc1)c1ccc(Br)cc1 [Compound 6d] | 5.08
O=S(=O)(NNc1nc2ccccc2nc1Cl)c1ccc(Br)cc1 [Compound 5d] | 4.88
O=S(=O)(NNc1nc2ccccc2nc1NNS(=O)(=O)c1ccc(C(F)(F)F)cc1)c1ccc(C(F)(F)F)cc1 [Compound 6c] | 7.02
Cc1ccc(S(=O)(=O)NNc2nc3ccccc3nc2NNS(=O)(=O)c2ccc(C)cc2)cc1 [Compound 6b] | 6.02
Cc1ccc(S(=O)(=O)NNc2nc3ccccc3nc2Cl)cc1 [Compound 5b] | 5.55

P = O=S(=O)(NNc1nc2ccccc2nc1NNS(=O)(=O)c1ccccc1)c1ccccc1 [Compound 6a]
Q = O=S(=O)(NNc1nc2ccccc2nc1Cl)c1ccc(C(F)(F)F)cc1 [Compound 5c]
Of P and Q , whose reported pIC50 is the larger number? Selection: enter the item's label.
P
(P: 5.50, Q: 4.53)

====

Protein target, amino acids: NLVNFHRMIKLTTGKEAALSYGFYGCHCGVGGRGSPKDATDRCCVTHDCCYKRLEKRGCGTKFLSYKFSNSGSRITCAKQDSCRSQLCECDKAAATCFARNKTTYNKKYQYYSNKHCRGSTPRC
pIC50: −log10 of the molar value.
Measured Attribute: pIC50

a = O=S(=O)(NNc1nc2ccccc2nc1NNS(=O)(=O)c1ccc(C(F)(F)F)cc1)c1ccc(C(F)(F)F)cc1
b = Cc1ccc(S(=O)(=O)NNc2nc3ccccc3nc2NNS(=O)(=O)c2ccc(C)cc2)cc1
Pick one, a or b : lowest reported pIC50. Selection: enter the item's label.
a
(a: 5.65, b: 7.12)

====

Target protein (sequence): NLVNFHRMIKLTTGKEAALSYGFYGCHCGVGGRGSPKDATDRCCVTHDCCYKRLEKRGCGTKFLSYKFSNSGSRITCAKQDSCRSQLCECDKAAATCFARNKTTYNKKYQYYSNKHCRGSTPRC
Measured Attribute: IC50 (nM)

a = O=S(=O)(NNc1nc2ccccc2nc1NNS(=O)(=O)c1ccccc1)c1ccccc1 [Compound 6a]
b = O=S(=O)(NNc1nc2ccccc2nc1Cl)c1ccc(Br)cc1 [Compound 5d]
Of a and b , whose reported IC50 is the larger number? Selection: enter the item's label.
b

A = O=S(=O)(NNc1nc2ccccc2nc1Cl)c1ccc(C(F)(F)F)cc1 [Compound 5c]
B = O=S(=O)(NNc1nc2ccccc2nc1NNS(=O)(=O)c1ccc(Br)cc1)c1ccc(Br)cc1 [Compound 6d]
Of A and B , whose reported IC50 is the larger number? Selection: enter the item's label.
B
